Data origin, for the record: patent US7737166B2

property: melting point

- compound: "CCN[C@H]1CCN(c2c(-c3ccccc3)c(C)c(C#N)c3nc(C4CC4)oc23)C1"
  melting point: "209 to 211 °C"

Req: Supply reported melting point belonging to this compound: `CN[C@@]1(C)CCN(c2c(-c3ccccc3)c(C)c(C#N)c3nc(C(=O)N(C)C)oc23)C1`
Resp: 172 to 174 °C

Req: Output melting point of `Cc1c(-c2ccccc2)c(N2CC[C@H](N(C)C)C2)c2oc(-c3ccccn3)nc2c1C#N`
Resp: 227 to 233 °C

Req: Give reported melting point value for `Cc1c(-c2ccccc2)c(N2CC[C@H](N(C)C)C2)c2oc(C(C)(C)F)nc2c1C#N`
Resp: 130 to 132 °C

Req: Consider the compound Cc1cc2c(c(N3CC[C@H](N(C)C)C3)c1-c1ccccc1)OC(C#N)(C(=O)N1CCCCC1)N2 (stereo partly drawn) and give its recorded melting point.
Resp: 170 to 173 °C

Req: Retrieve melting point measured for `Cc1c(-c2ccccc2)c(N2CC[C@H](N(C)C)C2)c2oc(C(C)(C)C)nc2c1C#N.Cl` and print it.
Resp: 198 to 201 °C (dec.)

====

property: melting point

Look over these answered cases.
- compound: "Cc1c(-c2ccccc2)c(C2=CCNC2)c2oc(C3CC3)nc2c1C#N [Example 153]"
  melting point: "172 to 174 °C"
- compound: "Cc1c(-c2ccccc2)c(N2CC[C@@H](N(C)C)C2)c2oc(C(=O)N(C)C)nc2c1C#N [Example 40-2]"
  melting point: "67 to 70 °C"

Req: # return recorded melting point for entry Cc1c(-c2ccccc2)c(N2CC[C@H](N(C)C)C2)c2oc(C(=O)N(C)C)nc2c1C#N [Example 40]
Resp: 139 to 142 °C

Req: Answer with the recorded melting point for the compound listed here: Cc1c(-c2cccn2C)c(N2CC[C@H](N(C)C)C2)c2oc(C3CC3)nc2c1C#N [Example 22]
Resp: 127 to 128 °C

Req: Please give measured melting point of the following entry: CN[C@H]1CCN(c2c(-c3ccccc3)c(C)c(C#N)c3nc(C(C)(C)C)oc23)C1.Cl [Example 2]
Resp: 237 to 240 °C (dec.)

Req: Annotate the compound Cc1c(-c2ccccc2)c(N2CC[C@H](N(C)C)C2)c2oc(-c3cnn(C)c3)nc2c1C#N [Example 74] with its measured melting point.
Resp: 214 to 222 °C

Req: Supply recorded melting point for CN[C@H]1CCN(c2c(-c3ccccc3)c(C)c(C#N)c3nc(C(=O)N(C)C)oc23)C1 [Example 40-1] here.
Resp: 148 to 151 °C

Req: Supply measured melting point of CN[C@@H]1CCN(c2c(-c3ccccc3)c(C)c(C#N)c3nc(C(=O)N(C)C)oc23)C1 [Example 40-3] in your reply.
Resp: 145 to 148 °C

Req: Recall and state the measured melting point for `Cc1c(-c2ccccc2)c(N2CC[C@H](N(C)C)C2)c2oc(N3CC(CC(=O)O)C3)nc2c1C#N` .
Resp: 125 to 128 °C

Req: Provide one value: measured melting point of Cc1c(-c2ccccc2)c(N2CC[C@](C)(N)C2)c2oc(C(=O)N(C)C)nc2c1C#N [Example 160]
Resp: 202 to 204 °C

Req: Look up and state reported melting point for Cc1c(-c2ccccc2)c(N2CC[C@H](N(C)C)C2)c2oc(-c3ccccc3O)nc2c1C#N [Example 110]
Resp: 159 to 162 °C

Req: Quickly give me recorded melting point for CNC(=O)c1nc2c(C#N)c(C)c(-c3ccccc3)c(N3CC[C@H](N(C)C)C3)c2o1 [Example 39]
Resp: 214 to 216 °C

Req: Indicate the recorded melting point value for this compound: Cc1c(-c2ccccc2)c(N2CC[C@H](N(C)C)C2)c2oc(N3CC(O)C3)nc2c1C#N [Example 65]
Resp: 219 to 221 °C

Req: Identify measured melting point associated with Cc1c(-c2cccc(CF)c2)c(N2CC[C@H](N(C)C)C2)c2oc(C3CC3)nc2c1C#N [Example 144-10]
Resp: 104 to 107 °C

Req: Return the recorded melting point value; entry: Cc1c(-c2ccco2)c(N2CC[C@H](N(C)C)C2)c2oc(C3CC3)nc2c1C#N [Example 18]
Resp: 158 to 159 °C
